measured target: Integrase (Human immunodeficiency virus 1)
protocol summary: Inhibitory concentration against human immuno deficiency virus type 1 integrase (3'-processing)
Please assign criterion not met whenever IC50 is at or above 60 µM, and criterion met whenever it is below.

Reference set (3 entries):
>>> category("Cc1ccc(/C=C2/SC(=S)N(CC(=O)Nc3cccc(C(=O)O)c3)C2=O)cc1")
"criterion not met"
>>> category("O=C(CN1C(=O)/C(=C/c2ccccc2Cl)SC1=S)Nc1ccc([N+](=O)[O-])cc1O")
"criterion not met"
>>> category("O=C(CN1C(=O)/C(=C/c2ccccc2Cl)SC1=S)Nc1cc([N+](=O)[O-])ccc1O")
"criterion met"

IC50 strictly < 60 µM for this compound? O=C(CCN1C(=O)/C(=C/c2cccs2)SC1=S)Nc1ccc2ccccc2c1
criterion not met

What do we get for COc1cc(/C=C2/SC(=S)N(CCC(=O)Nc3ccc(C(=O)O)cc3)C2=O)cc(OC)c1OC ?
criterion not met

Now the same for O=C1/C(=C/c2ccc(O)cc2O)SC(=S)N1c1ccccc1
criterion not met

Another compound to check: O=C(CCN1C(=O)/C(=C/c2ccccc2Cl)SC1=S)Nc1ccc([N+](=O)[O-])cc1
criterion not met

Further, for CCc1ccc(/C=C2/SC(=S)N(CC(=O)Nc3cccc(C(=O)O)c3)C2=O)cc1 ?
criterion not met
